Assay System: T1, human CD79b (recombinant antigen in the ForteBio assays) (human, UniProt P40259 29-159)
T1 construct: the immunogen was CD79b protein from Sino, Cat #29750-H08H; also called huCD79b
T1 sequence (looked up): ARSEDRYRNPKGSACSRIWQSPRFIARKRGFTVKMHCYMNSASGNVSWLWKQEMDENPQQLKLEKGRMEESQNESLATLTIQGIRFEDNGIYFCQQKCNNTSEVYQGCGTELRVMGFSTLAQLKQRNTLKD
Test Summary: BLI (ForteBio), antibody loaded on sensor, antigen in solution
Experimental Readout: Kd (nM)
Form entry: value (nM) — number only.

A7v14b (antibody, V domains shown, also called CD79b.A7v14b) VH: EVQLVQSGAEVKKPGASVKVSCKASGYTFTTYYMNWVRQAPGQGLEWIGMIDPSDSETHYNQKFQGRATLTVDTSTSTAYLELSSLRSEDTAVYYCSRSLAFWGQGTLVTVSS VL: DIVMTQTPLSLPVTPGQPASISCKSSQSLLDSDGKTYLNWLLQKPGQSPQSLIYLVSKLDSGVPDRFSGSGSGTDFTLKISRVEAEDVGVYYCWQGTHFPQTFGQGTKVEIK
1.84

Okay, now this binder:
Q: # query: Kd of entry hz11G10.9.p1 (antibody, V domains shown, Humanized monospecific anti-CD79b antibody; also called 11G10.9.01) VH: QVQLVQSGAEVKKPGASVKVSCKASGYTFTDYWVNWVRQAPGQGLEWMGMIDPSDSETHYNQMFNDRVTMTVDTSTSTVYMELSSLRSEDTAVYYCTRSNYYWGQGTLVTVSS VL: DIVMTQTPLSLSVTPGQPASISCKSSQSLLDSEGKTYLNWLLQKPGQSPQSLIYLVSKLDSGVPDRFSGSGSGTDFTLKISRVEAEDVGVYYCWQGTHFPLTFGGGTKVEIK
Ans: 1.35
